system: 832693-133-R-J1-PDC multi-cell spheroids, viability; test: Anticancer human tumor 832693-133-R-J1-PDC patient-derived head and neck squamous carcinoma cell line growth inhibition [IpAb]; conditions: second compound 0.316 µM; first compound 0.00316 µM; stronger effect = lower value
OBSERVATION TYPE: viability, T/C (%)
Supply the numeric figure in %, leaving out any unit text.

Example results:
CC(C)n1nc(-c2ccc3oc(N)nc3c2)c2c(N)ncnc21 + CCN1CCN(Cc2ccc(Nc3ncc(F)c(-c4cc(F)c5nc(C)n(C(C)C)c5c4)n3)nc2)CC1: 49
Cn1ncnc1[C@H]1c2n[nH]c(=O)c3cc(F)cc(c23)N[C@@H]1c1ccc(F)cc1 + CC(C)NCC(C(=O)N1CCN(c2ncnc3c2C(C)CC3O)CC1)c1ccc(Cl)cc1: 69.2
Cn1ncnc1[C@H]1c2n[nH]c(=O)c3cc(F)cc(c23)N[C@@H]1c1ccc(F)cc1 + CCN1CCN(Cc2ccc(Nc3ncc(F)c(-c4cc(F)c5nc(C)n(C(C)C)c5c4)n3)nc2)CC1: 60.5
COc1c(OCCCN2CCOCC2)ccc2c3n(c(=NC(=O)c4cnc(N)nc4)nc12)CCN3 + CCN1CCN(Cc2ccc(Nc3ncc(F)c(-c4cc(F)c5nc(C)n(C(C)C)c5c4)n3)nc2)CC1: 53.8
CC(C)n1nc(-c2ccc3oc(N)nc3c2)c2c(N)ncnc21 + CC(C)NCC(C(=O)N1CCN(c2ncnc3c2C(C)CC3O)CC1)c1ccc(Cl)cc1: 75.5

Continue with the compound presented below.
Fill: viability, T/C (832693-133-R-J1-PDC multi-cell spheroids, viability) for this compound COc1c(OCCCN2CCOCC2)ccc2c3n(c(=NC(=O)c4cnc(N)nc4)nc12)CCN3 + CC(C)NCC(C(=O)N1CCN(c2ncnc3c2C(C)CC3O)CC1)c1ccc(Cl)cc1
59.6

* * *

test system: 832693-133-R-J1-PDC multi-cell spheroids, viability; assay: Anticancer human tumor 832693-133-R-J1-PDC cell line growth inhibition [IpAb]; conditions: curve of first compound; second compound 10 µM;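 note: spheroids exposed to the drugs for one week before the viability readout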
A collection of molecules and their measured IC50

Return reported IC50. Input molecule: CC(C)n1nc(-c2ccc3oc(N)nc3c2)c2c(N)ncnc21 + CC(C)NCC(C(=O)N1CCN(c2ncnc3c2C(C)CC3O)CC1)c1ccc(Cl)cc1
> 100 nM

Determine from records and report IC50 for CCCS(=O)(=O)Nc1ccc(F)c(C(=O)c2c[nH]c3ncc(-c4ccc(Cl)cc4)cc23)c1F + CC(C)NCC(C(=O)N1CCN(c2ncnc3c2C(C)CC3O)CC1)c1ccc(Cl)cc1
> 10000 nM

Write down IC50 measured for item Cn1ncnc1[C@H]1c2n[nH]c(=O)c3cc(F)cc(c23)N[C@@H]1c1ccc(F)cc1 + CC(C)NCC(C(=O)N1CCN(c2ncnc3c2C(C)CC3O)CC1)c1ccc(Cl)cc1
> 100 nM

Answer with the recorded IC50 for the molecule listed here: COc1c(OCCCN2CCOCC2)ccc2c3n(c(=NC(=O)c4cnc(N)nc4)nc12)CCN3 + CC(C)NCC(C(=O)N1CCN(c2ncnc3c2C(C)CC3O)CC1)c1ccc(Cl)cc1
< 3.16 nM

* * *

Test system: 832693-133-R-J1-PDC multi-cell spheroids, viability
Test: Anticancer human tumor 832693-133-R-J1-PDC cell line growth inhibition [IpAb];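 note: spheroids exposed to the drugs for one week before the viability readout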;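 for viability, T/C: 100% = DMSO vehicle control wells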
Details: second compound 0.0316 µM; first compound 10 µM; stronger effect = lower value
Description: Combinatorial screen of targeted agents with ipatasertib and abemaciclib in multi-cell type tumor spheroids […] Compounds. […] If the clinical Cmax for an agent had not been determined, the highest concentration tested was 10 microM. NCI60 Cell Culture. […] The optimal seeding densities for each of the cell lines at each time point assessed were determined prior to performing the concentration response studies. […]
OBSERVATION TYPE: viability, T/C

Completed entries (count: 3):
Cn1nccc1Nc1nccc(-c2ccn(C(CO)c3ccc(Cl)c(F)c3)c(=O)c2)n1 (centres undefined) + CCN1CCN(Cc2ccc(Nc3ncc(F)c(-c4cc(F)c5nc(C)n(C(C)C)c5c4)n3)nc2)CC1: 34.2%
CC1(C)CCC(CN2CCN(c3ccc(C(=O)NS(=O)(=O)c4ccc(NCC5CCOCC5)c([N+](=O)[O-])c4)c(Oc4cnc5[nH]ccc5c4)c3)CC2)=C(c2ccc(Cl)cc2)C1 + CCN1CCN(Cc2ccc(Nc3ncc(F)c(-c4cc(F)c5nc(C)n(C(C)C)c5c4)n3)nc2)CC1: 30.4%
C=CC(=O)N1CCN(c2nc(=O)n(-c3c(C)ccnc3C(C)C)c3nc(-c4c(O)cccc4F)c(F)cc23)C(C)C1 (centres undefined) + CCN1CCN(Cc2ccc(Nc3ncc(F)c(-c4cc(F)c5nc(C)n(C(C)C)c5c4)n3)nc2)CC1: 95%

In the following, a different compound is considered.
Find the measured viability, T/C of Cn1ncc(Cl)c1-c1cc(C(=O)NC(CN)Cc2cccc(F)c2)sc1Cl (centres undefined) + CCN1CCN(Cc2ccc(Nc3ncc(F)c(-c4cc(F)c5nc(C)n(C(C)C)c5c4)n3)nc2)CC1 and report it.
0.25%

* * *

pIC50 values, listed per item
test system: 832693-133-R-J1-PDC multi-cell spheroids, viability; assay: Anticancer human tumor 832693-133-R-J1-PDC cell line growth inhibition [IpAb]; conditions: curve of first compound; second compound 0.1 µM;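 note: spheroids exposed to the drugs for one week before the viability readout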
pIC50: −log10 of the molar value.

# example entries with known answers
C=CC(=O)N1CCN(c2nc(=O)n(-c3c(C)ccnc3C(C)C)c3nc(-c4c(O)cccc4F)c(F)cc23)C(C)C1 (stereo not drawn) + CC(C)NCC(C(=O)N1CCN(c2ncnc3c2C(C)CC3O)CC1)c1ccc(Cl)cc1: < 5.00
CC(=O)c1c(C)c2cnc(Nc3ccc(N4CCNCC4)cn3)nc2n(C2CCCC2)c1=O + CCN1CCN(Cc2ccc(Nc3ncc(F)c(-c4cc(F)c5nc(C)n(C(C)C)c5c4)n3)nc2)CC1: < 6.52

Continue with the compound presented below.
Hello, please tell me recorded pIC50 for this one: Cn1ncc(Cl)c1-c1cc(C(=O)NC(CN)Cc2cccc(F)c2)sc1Cl (stereo not drawn) + CCN1CCN(Cc2ccc(Nc3ncc(F)c(-c4cc(F)c5nc(C)n(C(C)C)c5c4)n3)nc2)CC1
> 7.50

* * *

test system: 832693-133-R-J1-PDC multi-cell spheroids, viability; assay: Anticancer human tumor 832693-133-R-J1-PDC cell line growth inhibition [IpAb]; conditions: second compound 0.0316 µM; first compound 0.316 µM; stronger effect = lower value;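 note: spheroids exposed to the drugs for one week before the viability readout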;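 for viability, T/C: 100% = DMSO vehicle control wells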
// values below are reported viability, T/C
Respond with the bare value in %.

Cc1nc(NC(=O)N2CCCC2C(N)=O)sc1-c1ccnc(C(C)(C)C(F)(F)F)c1 (stereo not given) + CCN1CCN(Cc2ccc(Nc3ncc(F)c(-c4cc(F)c5nc(C)n(C(C)C)c5c4)n3)nc2)CC1: 46
Cn1ncc(Cl)c1-c1cc(C(=O)NC(CN)Cc2cccc(F)c2)sc1Cl (stereo not given) + CCN1CCN(Cc2ccc(Nc3ncc(F)c(-c4cc(F)c5nc(C)n(C(C)C)c5c4)n3)nc2)CC1: 61.3
C=CCn1c(=O)c2cnc(Nc3ccc(N4CCN(C)CC4)cc3)nc2n1-c1cccc(C(C)(C)O)n1 + CCN1CCN(Cc2ccc(Nc3ncc(F)c(-c4cc(F)c5nc(C)n(C(C)C)c5c4)n3)nc2)CC1: 40.4

Supply viability, T/C measured with 832693-133-R-J1-PDC multi-cell spheroids, viability for CC1(C)CCC(CN2CCN(c3ccc(C(=O)NS(=O)(=O)c4ccc(NCC5CCOCC5)c([N+](=O)[O-])c4)c(Oc4cnc5[nH]ccc5c4)c3)CC2)=C(c2ccc(Cl)cc2)C1 + CCN1CCN(Cc2ccc(Nc3ncc(F)c(-c4cc(F)c5nc(C)n(C(C)C)c5c4)n3)nc2)CC1 .
85.8

Answer with viability, T/C of CCCS(=O)(=O)Nc1ccc(F)c(C(=O)c2c[nH]c3ncc(-c4ccc(Cl)cc4)cc23)c1F + CCN1CCN(Cc2ccc(Nc3ncc(F)c(-c4cc(F)c5nc(C)n(C(C)C)c5c4)n3)nc2)CC1 measured for 832693-133-R-J1-PDC multi-cell spheroids, viability.
81.5

* * *

Test system: 832693-133-R-J1-PDC multi-cell spheroids, viability
Assay: Anticancer human tumor 832693-133-R-J1-PDC cell line growth inhibition [IpAb];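 note: spheroids exposed to the drugs for one week before the viability readout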
Conditions: curve of first compound; second compound 0.1 µM
Method: Combinatorial screen of targeted agents with ipatasertib and abemaciclib in multi-cell type tumor spheroids […] Compounds. […] If the clinical Cmax for an agent had not been determined, the highest concentration tested was 10 microM. NCI60 Cell Culture. […] The optimal seeding densities for each of the cell lines at each time point assessed were determined prior to performing the concentration response studies. […]
pIC50: −log10 of the molar value.
Listing of recorded pIC50 by entry.

These recorded examples may help you get a feel for the data.
C=CC(=O)N1CCN(c2nc(=O)n(-c3c(C)ccnc3C(C)C)c3nc(-c4c(O)cccc4F)c(F)cc23)C(C)C1 (stereo not drawn) + CCN1CCN(Cc2ccc(Nc3ncc(F)c(-c4cc(F)c5nc(C)n(C(C)C)c5c4)n3)nc2)CC1: < 5.00
Cn1ncnc1[C@H]1c2n[nH]c(=O)c3cc(F)cc(c23)N[C@@H]1c1ccc(F)cc1 + CC(C)NCC(C(=O)N1CCN(c2ncnc3c2C(C)CC3O)CC1)c1ccc(Cl)cc1: < 7.00

Determine its reported pIC50: Cn1cnc2c(F)c(Nc3ccc(Br)cc3Cl)c(C(=O)NOCCO)cc21 + CCN1CCN(Cc2ccc(Nc3ncc(F)c(-c4cc(F)c5nc(C)n(C(C)C)c5c4)n3)nc2)CC1
> 8.02
